biological target: dopaminergic receptors D2 (Homo sapiens, UniProt P14416); test: Radioligand binding assay, dopaminergic D2 receptors; details: binding assay, test compound 1×10^−6 M
Sequence (P14416 whole entry): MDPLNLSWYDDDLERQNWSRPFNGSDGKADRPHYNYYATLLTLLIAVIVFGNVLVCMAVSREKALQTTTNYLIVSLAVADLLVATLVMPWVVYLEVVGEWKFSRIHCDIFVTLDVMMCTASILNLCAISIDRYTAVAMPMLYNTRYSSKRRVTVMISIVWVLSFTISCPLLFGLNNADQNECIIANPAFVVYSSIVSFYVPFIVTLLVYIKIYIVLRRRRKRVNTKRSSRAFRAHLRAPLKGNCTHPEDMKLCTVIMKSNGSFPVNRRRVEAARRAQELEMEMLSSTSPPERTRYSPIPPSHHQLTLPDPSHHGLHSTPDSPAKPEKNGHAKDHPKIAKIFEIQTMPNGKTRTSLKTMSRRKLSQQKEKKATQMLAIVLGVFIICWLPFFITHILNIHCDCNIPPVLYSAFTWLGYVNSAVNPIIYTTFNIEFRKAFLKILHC
Would you mind labelling by inhibition at 1 µM? At or over 80% is yes, under is no.

Query string: Would you say O=S(=O)(NCC1CCN(CCCc2noc3cc(F)ccc23)C1)c1ccccc1 (stereo not drawn) shows inhibition at 1 µM at minimum 80%?
Result string: no

Query string: Would you say Cc1ccc2sc(S(=O)(=O)NC3CCN(CCCc4noc5cc(F)ccc45)C3)cc2c1 (stereo not drawn) shows inhibition at 1 µM at minimum 80%?
Result string: yes

Query string: Would you say O=S(=O)(N[C@H]1CCN(CCCc2noc3cc(F)ccc23)C1)c1cc2ccccc2o1 shows inhibition at 1 µM at minimum 80%?
Result string: yes

Query string: Would you say O=S(=O)(NCC1CCN(CCOc2cccc3ccccc23)C1)c1cccc2ccccc12 (stereo not drawn) shows inhibition at 1 µM at minimum 80%?
Result string: no

Query string: Would you say O=S(=O)(NCC1CN(CCOc2cccc3c2OCCO3)C1)c1ccc2cc(Cl)ccc2c1 shows inhibition at 1 µM at minimum 80%?
Result string: no

Query string: Would you say O=S(=O)(NC1CCN(CCCc2noc3cc(F)ccc23)C1)c1ccc(Cl)cc1 (stereo not drawn) shows inhibition at 1 µM at minimum 80%?
Result string: yes

Query string: Would you say O=S(=O)(NCC1CN(CCOc2cccc3c2OCCO3)C1)c1csc2ccccc12 shows inhibition at 1 µM at minimum 80%?
Result string: no

Query string: Would you say O=S(=O)(NC1CCN(CCCc2noc3cc(F)ccc23)CC1)c1ccc2cc(Cl)ccc2c1 shows inhibition at 1 µM at minimum 80%?
Result string: yes

Query string: Would you say O=S(=O)(NC1CCN(CCCc2noc3cc(F)ccc23)C1)c1ccc2ccccc2c1 (stereo not drawn) shows inhibition at 1 µM at minimum 80%?
Result string: yes

Query string: Would you say O=S(=O)(NCC1CN(CCCc2noc3cc(F)ccc23)C1)c1ccc(Cl)s1 shows inhibition at 1 µM at minimum 80%?
Result string: no

Query string: Would you say O=S(=O)(NCC1CN(CCCc2noc3cc(F)ccc23)C1)c1ccc(Cl)cc1 shows inhibition at 1 µM at minimum 80%?
Result string: no

Query string: Would you say O=S(=O)(NCC1CN(CCOc2nsc3ccccc23)C1)c1ccc2ccccc2c1 shows inhibition at 1 µM at minimum 80%?
Result string: no

Query string: Would you say O=S(=O)(NC1CCN(CCCc2noc3cc(F)ccc23)C1)c1ccc(-c2ccccc2)cc1 (stereo not drawn) shows inhibition at 1 µM at minimum 80%?
Result string: yes

====

target: dopaminergic receptors D2 (Homo sapiens, UniProt P14416); test: Radioligand binding assay, dopaminergic D2 receptors; conditions: binding assay, test compound 1×10^−6 M
What inhibition at 1 µM was measured for each of the following?
Numbers only here, please. The scale is %.

Query string: Which inhibition at 1 µM is reported for this compound? O=S(=O)(NCC1CN(CCOc2cccc3c2OCCO3)C1)c1ccc(I)cc1
Result string: 81

Query string: Which inhibition at 1 µM is reported for this compound? O=S(=O)(NCC1CCN(CCOc2cccc3c2OCCO3)C1)c1cccc(O)c1 (stereo not shown)
Result string: 79

Query string: Which inhibition at 1 µM is reported for this compound? Cc1c(S(=O)(=O)NCC2CN(CCOc3cccc4ccccc34)C2)sc2ccc(F)cc12
Result string: 82

Query string: Which inhibition at 1 µM is reported for this compound? O=S(=O)(NCC1CCN(CCCc2noc3cc(F)ccc23)C1)c1ccc(-c2ccccc2)cc1 (stereo not shown)
Result string: 81

Cited source for all entries: patent US20140135310A1
